Target Or Test System: T1, human SIRPα on cells (human, UniProt P78324 31-504)
T1 construct: Whole entry
Method Summary: flow cytometry;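 note: antibodies tested at 1 µg/ml for 30 min on ice against receptor-expressing cells, detected with a PE-labelled secondary antibody, read as mean fluorescence intensity relative to background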
In this section, each of the binders is paired with its reported FOB.
Answer with a number only, understood to be in fold over background.

Binder: SB-30 (antibody, V domains shown, IgG) VH: QVQLQESGPGLVKPSQTLSLTCTVSGGSISSGGYYWSWIRQHPGKGLEWIGYIYYSGSTVYNPSLKSRVTISVDTSKNQFSLKLSSVTAADTAVYYCAREGPGYPSYFDPWGQGTLVTVSS VL: EIVLTQSPGTLSLSPGERATLSCRASQSVSSSFLAWYQQKPGQAPRLLIYGASSRATGIPDRFSGSGSGTDFTLTISRLEPEDFAVYYCQQFLSSPWTFGGGTKVENQ
FOB, fold over background: 2.1
--
Binder: SB-40 (antibody, V domains shown, IgG; also called SB-40 (p)) VH: QVQLVQSGAEVKKPGASVKVSCKASGYTFTSYYMSWVRQAPGQGLEWMGIINPSGGSTSYAQKFQGRVTMTRDTSTSTVYMELSSLRSEDTAVYYCARDTGEYSYSPHGMDVWGQGTTVTVSS VL: EIVLTQSPATLSLSPGERATLSCRASQSVSSYLAWYQQKPGQAPRLLIYDSSNRATGIPARFSGSGSGTDFTLTISSLEPEDFAVYYCQQRDEHPPWTFGGGTKVEIK
FOB, fold over background: 2.5
--
Binder: SB-38 (antibody, V domains shown, IgG) VH: QVQLVQSGAEVKKPGASVKVSCKASGYTFTSYYMHWVRQAPGQGLEWMGIINPSGGSTSYAQKFQGRVTMTRDTSTSTVYMELSSLRSEDTAVYYCARESGTDFGTISYWGQGTLVTVSS VL: DIQMTQSPSSVSASVGDRVTITCRASQGISSWLAWYQQKPGKAPKLLIYAASSLQSGVPSRFSGSGSGTDFTLTISSLQPEDFATYYCQQAVSYPITFGGGTKVEIK
FOB, fold over background: 2.1

# FOB (binder: SB-24 (antibody, V domains shown, IgG) VH: QVQLQESGPGLVKPSETLSLTCAVSGYSISSGYYWAWIRQPPGKGLEWIGSIYHSGSTYYNPSLKSRVTISVDTSKNQFSLKLSSVTAADTAVYYCARDRSRGYPVYGMDVWGQGTTVTVSS VL: EIVMTQSPATLSVSPGERATLSCRASQSVSSNLAWYQQKPGQAPRLLIYGASTRATGIPARFSGSGSGTEFTLTISSLQSEDFAVYYCQQLNIHPWTFGGGTKVEIK ) is 2.5

# FOB (binder: SB-36 (antibody, V domains shown, IgG) VH: QVQLVQSGAEVKKPGASVKVSCKASGYTFTSYYMHWVRQAPGQGLEWMGIINPSGGSTSYAQKFQGRVTMTRDTSTSTVYMELSSLRSEDTAVYYCAREGPEQLWYLDYWGQGTLVTVSS VL: DIQMTQSPSSVSASVGDRVTITCRASQGISSWLAWYQQKPGKAPKLLIYAASSLQSGVPSRFSGSGSGTDFTLTISSLQPEDFATYYCQQAFSHRTFGGGTKVEIK ) is 2.1

# FOB (binder: SB-42 (antibody, V domains shown, IgG) VH: QVQLVQSGAEVKKPGASVKVSCKASGYTFTSYGISWVRQAPGQGLEWMGWISAYNGNTNYAQKLQGRVTMTTDTSTSTAYMELRSLRSDDTAVYYCARGPGHYYVAGMDVWGQGTTVTVSS VL: EIVMTQSPATLSVSPGERATITCRASQSISSYLNWYQQKPGKAPKLLIYSASSLQSGVPSRFSGSGSGTDFTLTISSLQPEDFATYYCQQGDSFPITFGGGTKVEIK ) is 2.7

# FOB (binder: SB-47 (antibody, V domains shown, IgG) VH: QLQLQESGPGLVKPSETLSLTCTVSGGSISSSSYAWGWIRQPPGKGLEWIGSIYYSGSTYYNPSLKSRVTISVDTSKNQFSLKLSSVTAADTAVYYCARDLGHYDYWSGSRDYYYGMDVWGQGTTVTVSS VL: DIQMTQSPSSLSASVGDRVTITCQASQDISNYLNWYQQKPGKAPKLLIYDASNLETGVPSRFSGSGSGTDFTFTISSLQPEDIATYYCQQADYFPITFGGGTKVEIK ) is 2.1

# FOB (binder: SB-31 (antibody, V domains shown, IgG) VH: QVQLVQSGAEVKKPGASVKVSCKASGYTFTSYYMHWVRQAPGQGLEWMGIINPGGGSTSYAQKFQGRVTMTRDTSTSTVYMELSSLRSEDTAVYYCAREGLYSSGWYIDVWGQGTLVTVSS VL: DIQMTQSPSSVSASVGDRVTITCRASQGISSWLAWYQQKPGKAPKLLIYAASSLQSGVPSRFSGSGSGTDFTLTISSLQPEDFATYYCQQAVSHPFTFGGGTKVEIK ) is 1.8

# FOB (binder: SB-4 (antibody, V domains shown, IgG) VH: QVQLVQSGAEVKKPGASVKVSCKASGYTFTSYGISWVRQAPGQGLEWMGWISAYNGNTNYAQKLQGRVTMTTDTSTSTAYMELRSLRSDDTAVYYCARSGTHFGTYSYSNWFDPWGQGTLVTVSS VL: EIVLTQSPGTLSLSPGERATLSCRASQSVSSSYLAWYQQKPGQAPRLLIYGASSRATGIPDRFSGSGSGTDFTLTISRLEPEDFAVYYCQQYADAPITFGGGTKVEIK ) is 2

# FOB (binder: SB-14 (antibody, V domains shown, IgG) VH: QVQLVQSGAEVKKPGSSVKVSCKASGGTFSSYAISWVRQAPGQGLEWMGGIIPIFGTASYAQKFQGRVTITADESTSTAYMELSSLRSEDTAVYYCARDRGGVGFDYWGQGTLVTVSS VL: EIVMTQSPATLSLSPGERATLSCRASQSVSSYLAWYQQKPGQAPRLLIYDSSNRATGIPARFSGSGSGTDFTLTISSLEPEDFAVYYCQQFSYYPITFGGGTKVEIK ) is 2.5
